TARGET UNDER TEST: human ether-à-go-go-related gene (hERG) potassium channel (human)
ASSAY TEXT: primary screen, population patch clamp on CHO cells stably expressing hERG; higher = less effect of the substance
Screen size: about 310,000 compounds; about 14,000 (4.5%) showed an effect of 50% or more. The effect is printed as a negative number. What follows is part of a selection rich in strong results, with near analogues and random picks from the rest.
PROPERTY MEASURED: hERG current change (%, negative = inhibition) at 10uM

COMPOUND	ASSAY RESULT
O=C(c1ccco1)N1CCC(c2nc(-c3ccc(F)cc3)no2)CC1	-41.8%
CCCCNC(=O)c1cccc(S(=O)(=O)N2CC3(C)CC2CC(C)(C)C3)c1 (centres unmarked)	-26.7%
CC(C)CC[n+]1ccccc1/C=C/c1ccc(N(C)C)cc1.[I-]	-71.3%
CCN(CC)c1ccc(/C=C/c2ccc3ccc(OC)cc3[n+]2CC)cc1.[I-]	-82%
CN(C)c1ccc(/C=C/c2ccc3ccccc3[n+]2C)cc1.[I-]	-59.9%
CN(CCCS(=O)(=O)[O-])c1ccc(/C=C/c2ccc3ccccc3[n+]2C)cc1	19.6%
Fc1ccc(-c2noc(C3CCN(Cc4cccnc4)CC3)n2)cc1	-51.5%
Cc1cc(C)cc(NC(=S)NCc2ccc3c(c2)OCO3)c1	-8.9%
CCCNC(=O)c1cccc(S(=O)(=O)N2CC3(C)CC2CC(C)(C)C3)c1 (centres unmarked)	-57.6%
Cc1nn(Cc2c(Cl)cccc2Cl)c(C)c1N	9.12%
CCCCCNC(=O)c1cccc(S(=O)(=O)N2CC3(C)CC2CC(C)(C)C3)c1 (centres unmarked)	-1.24%
CC[n+]1c(/C=C/c2ccc(OC(C)=O)c(OC)c2)ccc2ccccc21.[I-]	-4.85%
COC(=O)c1c(C(=O)OC)n(CCCN)c2ccc(C)cc12.Cl	-77%
CC1(C)CC2CC(C)(CN2S(=O)(=O)c2cccc(C(=O)OCC(N)=O)c2)C1 (centres unmarked)	-7.62%
CC1(C)CC2CC(C)(CN2S(=O)(=O)c2cccc(C(=O)OCC(=O)NC(N)=O)c2)C1 (centres unmarked)	-57.1%
CNC(=O)NC(=O)COC(=O)c1cccc(S(=O)(=O)N2CC3(C)CC2CC(C)(C)C3)c1 (centres unmarked)	-14.4%
COC(=O)c1c(C)n(Cc2ccccc2)c2ccc(O)cc12	14.8%
CCN(C(=S)NCCOC)c1cccc2ccccc12	8.8%
CNC(=O)c1[nH]cnc1C(=O)Nc1ccc(OC)cc1	20.8%
Fc1ccc(C2=CCN(C(c3cccs3)c3nnnn3CCc3ccccc3)CC2)cc1 (centres unmarked)	-0.341%

----------
TARGET UNDER TEST: human ether-à-go-go-related gene (hERG) potassium channel (human, UniProt Q12809);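 further: peak tail current of the secondary pulse compared with the same well before compound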
Sequence (Q12809 whole entry, looked up): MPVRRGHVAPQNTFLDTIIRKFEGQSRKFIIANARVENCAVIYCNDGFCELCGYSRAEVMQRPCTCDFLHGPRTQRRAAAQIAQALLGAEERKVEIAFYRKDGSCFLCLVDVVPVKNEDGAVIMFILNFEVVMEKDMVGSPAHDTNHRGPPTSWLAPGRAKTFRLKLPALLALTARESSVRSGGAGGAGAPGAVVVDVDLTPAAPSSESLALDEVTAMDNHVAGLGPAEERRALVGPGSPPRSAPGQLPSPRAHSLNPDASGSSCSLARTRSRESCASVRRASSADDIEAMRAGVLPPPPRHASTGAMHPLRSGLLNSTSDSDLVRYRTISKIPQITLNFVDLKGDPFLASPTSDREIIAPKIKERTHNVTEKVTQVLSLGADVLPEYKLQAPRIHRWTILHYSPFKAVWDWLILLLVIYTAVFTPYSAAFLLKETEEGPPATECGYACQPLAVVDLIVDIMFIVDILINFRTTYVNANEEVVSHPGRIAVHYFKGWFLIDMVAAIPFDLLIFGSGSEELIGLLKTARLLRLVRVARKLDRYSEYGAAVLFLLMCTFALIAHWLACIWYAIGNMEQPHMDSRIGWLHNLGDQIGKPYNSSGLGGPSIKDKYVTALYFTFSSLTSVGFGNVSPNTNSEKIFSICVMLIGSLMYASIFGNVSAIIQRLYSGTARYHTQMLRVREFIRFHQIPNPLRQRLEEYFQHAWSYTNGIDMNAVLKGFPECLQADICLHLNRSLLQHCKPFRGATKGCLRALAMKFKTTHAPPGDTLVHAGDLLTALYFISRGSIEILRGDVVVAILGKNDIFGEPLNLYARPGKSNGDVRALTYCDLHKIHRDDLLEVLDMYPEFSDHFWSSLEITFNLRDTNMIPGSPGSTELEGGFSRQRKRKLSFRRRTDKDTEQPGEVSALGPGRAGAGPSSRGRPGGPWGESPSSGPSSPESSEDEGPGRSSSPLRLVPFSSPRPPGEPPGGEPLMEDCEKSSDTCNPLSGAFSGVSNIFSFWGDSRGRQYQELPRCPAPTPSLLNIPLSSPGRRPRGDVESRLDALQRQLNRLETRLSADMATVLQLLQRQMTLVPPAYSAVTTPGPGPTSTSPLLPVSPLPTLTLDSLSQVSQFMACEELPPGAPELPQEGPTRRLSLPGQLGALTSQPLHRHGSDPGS
ASSAY TEXT: primary screen, population patch clamp on CHO cells stably expressing hERG; higher = less effect of the substance
Method: Briefly, Chinese hamster ovary (CHO) cells stably expressing the hERG channel were dislodged from tissue culture flasks and dispensed into PPC plates. […] During the recording, background leak currents were estimated by a 100 ms step to -80 mV from an initial holding potential of -70 mV and subtracted from the subsequent current measurement. The campaign was conducted in two phases using slight differences in recording protocol. […]
Screen size: about 310,000 compounds; about 14,000 (4.5%) showed an effect of 50% or more. Effects have a minus sign here. This excerpt belongs to a sample that is enriched for strong results.
PROPERTY MEASURED: hERG current change (%, negative = inhibition) at 10uM (%)

MOLECULE	ASSAY RESULT
CCCCC1=CC2=CC(=O)C(C)(OC(=O)CC)C(=O)C2=CN1Cc1ccccc1 (stereo not shown)	-42.9
CCCCC1=CC2=CC(=O)C(C)(OC(=O)CC)C(=O)C2=CN1CCCCO (stereo not shown)	0.395
Cc1oc(-c2cccc(F)c2)nc1CN1CCCN(C(=O)c2ccco2)CC1	-74.7
NC(=O)CC(NC(=O)c1ccc(Br)cc1)c1ccc(N2CCCCCC2)c([N+](=O)[O-])c1 (stereo not shown)	-7.79
O=C(c1ccc2oc(CCc3ccccc3)nc2c1)N1CCC(O)CC1	14.9
Cc1oc(-c2cc(F)ccc2F)nc1CN1CCCN(C(=O)c2ccco2)CC1	-36.6
CCCCC1=CC2=CC(=O)C(C)(OC(=O)CC)C(=O)C2=CN1Cc1ccc(OC)cc1 (stereo not shown)	-55.1
CCCCC1=CC2=CC(=O)C(C)(OC(=O)CC)C(=O)C2=CN1c1ccc(OC)cc1 (stereo not shown)	-13
COC(=O)CCCC1=CC2=CC(=O)C(C)(OC(=O)c3cccs3)C(=O)C2=CN1Cc1ccc2c(c1)OCO2 (stereo not shown)	-7.74
CCOC(=O)C1CCCN(CC(O)COc2cccc(C)c2)C1.Cl (stereo not shown)	-23.7
CCCCC1=CC2=CC(=O)C(C)(OC(=O)CC)C(=O)C2=CN1CCc1ccc(Br)cc1 (stereo not shown)	-58.9
CCN(CC)S(=O)(=O)c1ccc(NC(=O)COC(=O)c2ccc(NC(=O)CC#N)cc2)cc1	20.5
COc1ccc(CN2CCCC(C(=O)c3ccc(Cl)cc3)C2)c(O)c1 (stereo not shown)	-67.7
COc1ccc(CN2CCCC(C(=O)c3ccc(Cl)cc3)C2)c(OC)c1 (stereo not shown)	-75.2
CCOC(=O)C1CCCN(C2=NC(=O)/C(=C/c3ccc(OC)c(OC)c3)S2)C1 (stereo not shown)	-22.8
CCc1ccccc1Nc1nc(-c2cccnc2)cs1	-3.32
COc1ccc(C(=O)C2CCCN(Cc3cc(Cl)ccc3O)C2)c(OC)c1 (stereo not shown)	-26.8
CC1CC(C)CN(C(=O)Cn2c(=O)oc3cc(S(=O)(=O)N4CCCC4)ccc32)C1 (stereo not shown)	-3.39
CCCCC1=CC2=CC(=O)C(C)(OC(=O)CC)C(=O)C2=CN1Cc1ccco1 (stereo not shown)	-32

----------
As shown below, each of these molecules has a reported hERG current change (%, negative = inhibition) at 10uM value.
TARGET UNDER TEST: human ether-à-go-go-related gene (hERG) potassium channel (human, UniProt Q12809);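 further: peak tail current of the secondary pulse compared with the same well before compound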
ASSAY TEXT: primary screen, population patch clamp on CHO cells stably expressing hERG; higher = less effect of the substance
Out of some 310,000 compounds screened, about 14,000 (4.5%) showed an effect of 50% or more. The effect is printed as a negative number. The list comes from a sample in which strong results are over-represented; it also holds close analogues and randomly drawn compounds.
PROPERTY MEASURED: hERG current change (%, negative = inhibition) at 10uM (%)

MOLECULE	READOUT UNIT	ASSAY RESULT
CC(OC(=O)c1cc2sccc2n1C)C(=O)NCC1CCCO1 (centres unmarked)	%	0.798
CCCCN(C)CCNC(=O)c1ccc(Cn2c(=S)[nH]c3ccc(Br)cc3c2=O)cc1	%	-41
CCN(CC)c1ccc(S(=O)(=O)N2CCOCC2)cc1NC(=O)COC(=O)COc1ccccc1C	%	12.7
O=C(Nc1cccc(O)c1)c1cc(-c2ccc3c(c2)OCO3)on1	%	11.3
CCOC(=O)CCCNC(=O)CCNC(=O)c1ccc(OCC(C)C)cc1	%	3.61

----------
As shown below, each of these compounds has a reported hERG current change (%, negative = inhibition) at 10uM value.
TARGET UNDER TEST: human ether-à-go-go-related gene (hERG) potassium channel (human, UniProt Q12809);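 further: peak tail current of the secondary pulse compared with the same well before compound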
ASSAY TEXT: primary screen, population patch clamp on CHO cells stably expressing hERG; higher = less effect of the substance
Out of some 310,000 compounds screened, about 14,000 (4.5%) showed an effect of 50% or more. Effects have a minus sign here. For the sample, strong results were picked, then their nearest neighbours and some compounds at random.
PROPERTY MEASURED: hERG current change (%, negative = inhibition) at 10uM (%)

COMPOUND	ASSAY RESULT
c1ccc(CSc2nnc(-c3ccco3)n2Cc2ccco2)cc1	-34.6
CCCOc1ccc(NC(=O)C2CC(=O)N3CCCN=C3S2)cc1 (centres unmarked)	-11
CC(=O)c1c(C)[nH]c(C(=O)CSc2nnc(-c3ccco3)n2Cc2ccccc2)c1C	-61.5
Cc1ccc(C(=O)CSc2nnc(-c3ccco3)n2Cc2ccccc2)cc1	-17.8
CC(=O)c1c(C)[nH]c(C(=O)CSc2nnc(-c3cccs3)n2Cc2ccccc2)c1C	-25.6

----------
TARGET UNDER TEST: human ether-à-go-go-related gene (hERG) potassium channel (human, UniProt Q12809);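 further: peak tail current of the secondary pulse compared with the same well before compound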
ASSAY TEXT: primary screen, population patch clamp on CHO cells stably expressing hERG; higher = less effect of the substance
Hit rate of the full screen: of about 310,000 compounds, about 14,000 (4.5%) showed an effect of 50% or more. Effects have a minus sign here. The full list was thinned out, with strong results kept by preference.
Each entry gets 0 if its hERG current change (%, negative = inhibition) at 10uM stays under -50%, and 1 if its hERG current change (%, negative = inhibition) at 10uM is -50% or above.

COMPOUND	CATEGORY LABEL
N#Cc1ccccc1OCC(=O)NCC1(N2CCCCC2)CCCCC1	1
NC(=S)N/N=C/c1cn(-c2ccccc2)nc1-c1cccnc1	1
CCCCCSc1cc(OC)c(CCN)cc1OC.O=C(O)/C=C\C(=O)O	1
CCCCCCCSc1cc(OC)c(CCN(C)C)cc1OC.O=C(O)/C=C\C(=O)O	0
CC(=O)c1ccc(OCC(=O)NCC2(N3CCCCC3)CCCCC2)cc1	1
CCCCCSc1cc(OC)c(CCN(C)C)cc1OC.O=C(O)/C=C\C(=O)O	0
Cc1ccccc1-c1nc(CN2CCC(C(=O)NCCCN3CCCC(C)C3)CC2)c(C)o1 (centres unmarked)	1
O=C(N/N=C/c1cn(-c2ccccc2)nc1-c1cccnc1)c1ccc(F)cc1	1
COc1ccc2[nH]c(=O)c(CN(Cc3cccs3)C(=S)Nc3ccccc3)cc2c1	1
CCCCCSc1cc(OC)c(CCNC)cc1OC.O=C(O)/C=C\C(=O)O	1
NC(=O)N/N=C/c1cn(-c2ccccc2)nc1-c1cccnc1	1
N#Cc1ccc(OCC(=O)NCC2(N3CCCCC3)CCCCC2)cc1	0
COc1ccc(CCNC(=O)C2CCN(Cc3nc(-c4ccccc4C)oc3C)CC2)cc1OC	0
COc1ccc(CCNC(=O)C2CCN(Cc3nc(-c4ccccc4F)oc3C)CC2)cc1OC	1
CSc1ccc(CN(C)C(=O)CNC(=O)CNS(=O)(=O)c2ccc(C)c(C)c2)cc1	1
CCOc1ccc(CC(=O)NCC2(N3CCCCC3)CCCCC2)cc1	1
COc1ccc(CCNC(=O)C2CCCN(Cc3nc(-c4ccccc4C)oc3C)C2)cc1OC (centres unmarked)	0
CCN1CCN(C(c2cccc(OC)c2)c2sc3nc(C)nn3c2O)CC1 (centres unmarked)	1
O=C(COc1ccccc1)NCC1(N2CCCCC2)CCCCC1	1
